biological target: T1, Proleukin® (aldesleukin) (human, UniProt P60568 21-153, limits assumed); test: ELISA, coated Proleukin, mean of 3 experiments;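 also: binding of anti-human IL-2 antibodies, tested as an 11-point dilution series for 2 hours, to plate-bound IL-2, detected via streptavidin-HRP with absorbance read at 450 nm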
T1 construct: Variant of human wt IL-2 with C145S (C125S on mature IL-2); also called IL-2 (Proleukin®); human IL-2 (Proleukin)
T1 sequence (P60568 other isoform, or with tags, fused parts or gaps limits assumed): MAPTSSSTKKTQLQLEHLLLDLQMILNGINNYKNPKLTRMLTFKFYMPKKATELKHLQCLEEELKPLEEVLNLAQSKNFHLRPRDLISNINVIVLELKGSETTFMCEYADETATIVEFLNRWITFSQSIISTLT
pEC50: −log10 of the molar value.
Property: pEC50

Binder	Property	Experimental value
104341 (antibody, V domains shown, VH1/VK1) VH: QVQLVQSGAEVKKPGSSVKVSCKASGYAFTNYLIEWVRQAPGQGLEWMGVINPGSGGTNYNEKFKGRVTITADKSTSTAYMELSSLRSEDTAVYYCARWRGDGYYAYFDVWGQGTTVTVSS VL: AIRLTQSPSSFSASTGDRVTITCKASQSVDYDGDSYMNWYQQKPGKAPKLLIYAASNLESGVPSRFSGSGSGTDFTLTISSLQSEDFATYYCQQSNEDPYTFGGGTKVEIK	pEC50	9.40

Data origin: patent US20210246200A1
